Cited source: patent US10266560B2

biological target: Human FXR (NR1H4) (Homo sapiens (Human)); assay: Human FXR (NR1H4) Assay (Gal4 promoter driven luciferase reporter transactivation in CHO cells); type: cell-based; conditions: efficacy normalized to chenodeoxycholic acid (CDCA) set as 100%
Sequence (Q96RI1 whole entry, the tested form may be a part): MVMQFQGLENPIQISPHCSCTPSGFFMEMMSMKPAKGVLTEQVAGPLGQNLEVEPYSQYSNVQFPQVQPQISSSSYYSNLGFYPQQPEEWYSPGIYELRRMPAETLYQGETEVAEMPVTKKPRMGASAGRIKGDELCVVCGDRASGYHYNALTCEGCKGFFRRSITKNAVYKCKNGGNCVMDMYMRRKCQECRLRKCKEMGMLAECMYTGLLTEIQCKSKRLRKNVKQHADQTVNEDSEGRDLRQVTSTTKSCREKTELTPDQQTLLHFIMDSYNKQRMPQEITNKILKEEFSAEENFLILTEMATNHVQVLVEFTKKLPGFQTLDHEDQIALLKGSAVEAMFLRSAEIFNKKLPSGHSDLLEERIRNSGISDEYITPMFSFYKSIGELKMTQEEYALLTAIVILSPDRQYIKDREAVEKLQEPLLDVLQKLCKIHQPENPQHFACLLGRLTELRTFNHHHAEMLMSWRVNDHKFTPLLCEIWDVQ
For each of the compounds below, state its Efficacy (%).
Give the quantity in %, number only.

q: Fill: Efficacy (%) (Human FXR (NR1H4) (Homo sapiens (Human))) for this compound `CC[C@H]1[C@@H](O)[C@@H]2[C@H](CC[C@]3(C)[C@@H]([C@H](C)CCC(=O)NS(=O)(=O)c4ccccc4)CC[C@@H]23)[C@@]2(C)CC[C@@H](O)C[C@@H]12`
a: 329

q: Report its Efficacy (%) with Human FXR (NR1H4) (Homo sapiens (Human)) as the test system: CCC1C(O)C2C3CCC(C(C)CCC(=O)NS(=O)(=O)c4ccccc4N)C3(C)CCC2C2(C)CCC(O)CC12 (stereo not shown)
a: 176

q: Given CCC1C(O)C2C3CCC(C(C)CCC(=O)NS(=O)(=O)C(C)(C)C)C3(C)CCC2C2(C)CCC(O)CC12 (stereo not shown) , report its Efficacy (%) on Human FXR (NR1H4) (Homo sapiens (Human)).
a: 218

q: Give Human FXR (NR1H4) (Homo sapiens (Human)) Efficacy (%) for the following compound: CCC1C(O)C2C3CCC(C(C)CCC(=O)NS(=O)(=O)Cc4ccccc4)C3(C)CCC2C2(C)CCC(O)CC12 (stereo not shown)
a: 178

q: Report value: Efficacy (%), system: Human FXR (NR1H4) (Homo sapiens (Human)), compound: CCC1C(O)C2C3CCC(C(C)CCC(=O)NS(=O)(=O)c4ccccc4C)C3(C)CCC2C2(C)CCC(O)CC12 (stereo not shown)
a: 348

q: Retrieve Efficacy (%) on Human FXR (NR1H4) (Homo sapiens (Human)); query CCC1C(O)C2C3CCC(C(C)CCC(=O)NS(=O)(=O)c4ccc(C)cc4)C3(C)CCC2C2(C)CCC(O)CC12 (stereo not shown)
a: 271

q: State the measured Efficacy (%) (Human FXR (NR1H4) (Homo sapiens (Human))) of CCCCS(=O)(=O)NC(=O)CCC(C)C1CCC2C3C(O)C(CC)C4CC(O)CCC4(C)C3CCC12C (stereo not shown)
a: 376

q: Give measured Efficacy (%) for CCC1C(O)C2C3CCC(C(C)CCC(=O)NS(N)(=O)=O)C3(C)CCC2C2(C)CCC(O)CC12 (stereo not shown) (Human FXR (NR1H4) (Homo sapiens (Human))).
a: 349

q: State the measured Efficacy (%) (Human FXR (NR1H4) (Homo sapiens (Human))) of C=CCS(=O)(=O)NC(=O)CCC(C)C1CCC2C3C(O)C(CC)C4CC(O)CCC4(C)C3CCC12C (stereo not shown)
a: 248

q: Name the value of Efficacy (%) reported for CCC1C(O)C2C3CCC(C(C)CCC(=O)NS(=O)(=O)CC)C3(C)CCC2C2(C)CCC(O)CC12 (stereo not shown) when tested on Human FXR (NR1H4) (Homo sapiens (Human)).
a: 258

q: Fill in Efficacy (%) for CCC1C(O)C2C3CCC(C(C)CCC(=O)NS(=O)(=O)c4ccccc4F)C3(C)CCC2C2(C)CCC(O)CC12 (stereo not shown) tested with Human FXR (NR1H4) (Homo sapiens (Human)).
a: 259

q: # return Efficacy (%) for CCC1C(O)C2C3CCC(C(C)CCC(=O)NS(=O)(=O)C4(C)CC4)C3(C)CCC2C2(C)CCC(O)CC12 (stereo not shown) , test system: Human FXR (NR1H4) (Homo sapiens (Human))
a: 331

q: Report its Efficacy (%) with Human FXR (NR1H4) (Homo sapiens (Human)) as the test system: CCC1C(O)C2C3CCC(C(C)CCC(=O)NS(=O)(=O)C4CC4)C3(C)CCC2C2(C)CCC(O)CC12 (stereo not shown)
a: 315

q: Param request: Efficacy (%) | system Human FXR (NR1H4) (Homo sapiens (Human)) | item CCCS(=O)(=O)NC(=O)CCC(C)C1CCC2C3C(O)C(CC)C4CC(O)CCC4(C)C3CCC12C (stereo not shown)
a: 295

q: Report measured Efficacy (%) on Human FXR (NR1H4) (Homo sapiens (Human)); entry: CCC1C(O)C2C3CCC(C(C)CCC(=O)NS(=O)(=O)C(F)(F)F)C3(C)CCC2C2(C)CCC(O)CC12 (stereo not shown)
a: 244

q: Write Efficacy (%) of CCC1C(O)C2C3CCC(C(C)CCC(=O)NS(=O)(=O)N4CCOCC4)C3(C)CCC2C2(C)CCC(O)CC12 (stereo not shown) ; system used: Human FXR (NR1H4) (Homo sapiens (Human))
a: 219

q: Please indicate recorded Efficacy (%) of CCC1C(O)C2C3CCC(C(C)CCC(=O)NS(=O)(=O)c4ccccc4[N+](=O)[O-])C3(C)CCC2C2(C)CCC(O)CC12 (stereo not shown) measured with Human FXR (NR1H4) (Homo sapiens (Human)).
a: 280

q: For Human FXR (NR1H4) (Homo sapiens (Human)), give the measured Efficacy (%) of the entry CCC1C(O)C2C3CCC(C(C)CCC(=O)NS(=O)(=O)C(C)C)C3(C)CCC2C2(C)CCC(O)CC12 (stereo not shown)
a: 289

q: Report Efficacy (%) on Human FXR (NR1H4) (Homo sapiens (Human)) for this entry: CCC1C(O)C2C3CCC(C(C)CCC(=O)NS(=O)(=O)F)C3(C)CCC2C2(C)CCC(O)CC12 (stereo not shown)
a: 347
